All values here come from PubChem BioAssay (Tox21).

# Assay Info: qHTS assay to identify small molecule antagonists of the retinoid-related orphan receptor gamma (ROR-gamma) signaling pathway - cell viability counter screen (AID 1159520); further: nearly all actives have a fitted effect of over 50% in size
# Test Context: Tet-on RORgamma CHO cells viability, ATP luminescence, 16 h; series mostly up to 92.4 µM
Results filed as inconclusive are left out. Calls of active or inactive are those of the source. The call rests on the fitted dose curve; in most records, active means well fitted cell-killing curve with a large enough effect in the repeat runs; inconclusive means weak or mixed curves, or effect the other way; inactive means no such curve, though single readings can be large or run the other way.
Outcome field: choose from y = active, n = inactive

Sample answers from the record:
Molecule: O=C(O)c1cc(Cl)cc(Cl)c1
Qualitative Label: n
//
Molecule: c1ccc2n[nH]nc2c1
Qualitative Label: n
//
Molecule: c1cc(C(c2ccc(OCC3CO3)cc2)C(c2ccc(OCC3CO3)cc2)c2ccc(OCC3CO3)cc2)ccc1OCC1CO1 (stereo not drawn)
Qualitative Label: n

Which outcome was assigned to CCCOC(=O)c1cc(O)c(O)c(O)c1 in this test?
n

Which outcome was assigned to Nc1cc(Cl)c(-c2cc(Cl)c(N)cc2Cl)cc1Cl in this test?
y

Which outcome was assigned to CCN(CC)c1ccc2c(C)cc(=O)oc2c1 in this test?
n

Which outcome was assigned to Clc1ccc2c(c1)C(N1CCNCC1)=Nc1ccccc1O2 in this test?
n

Which outcome was assigned to CC(C)(C)NCC(O)COc1ccccc1OCC1CCCO1 (stereo not drawn) in this test?
n

* * *

# System: Nuclear receptor subfamily 1 group I member 2 (Homo sapiens) (UniProt O75469)
# Assay Info: CYP3A4 induction through human pregnane X receptor (PXR) by small molecules, qHTS assay (AID 1346984); further: nearly all actives have a fitted effect of over 40% in size
# Test Context: DPX-2 HepG2 PXR, CYP3A4-luciferin luminescence, 24 h; series mostly up to 46.1 µM
# Description: National Center for Advancing Translational Sciences [NCATS] NIH Chemical Genomics Center [NCGC] U.S. Environmental Protection Agency [EPA] National Institutes of Environmental Health Sciences [NIEHS] National Toxicology Program [NTP] The Pregnane X receptor (PXR), a ligand activated nuclear receptor plays a critical role in the regulation of genes involved in drug metabolism and transporters. Activation of PXR is responsible for unwanted adverse drug reactions. […]
Results filed as inconclusive are left out. Calls of active or inactive are those of the source. Calls come from the whole dose curve; as a rule, active = well fitted activation curve with a large enough effect in the repeat runs; inconclusive = weak or mixed curves; inactive = no such curve, though single readings can be large or run the other way.
Outcome field: choose from Y for active, N for inactive

Sample answers from the record:
Molecule Smiles: CCOc1ccccc1C(N)=O
Qualitative Label: N

Molecule Smiles: OCC(CO)N[C@H]1C[C@](O)(CO)[C@@H](O)[C@H](O)[C@H]1O
Qualitative Label: N

Molecule Smiles: CC[C@H]1CN2CCc3cc(OC)c(OC)cc3[C@@H]2C[C@@H]1C[C@H]1NCCc2cc(OC)c(OC)cc21
Qualitative Label: N

Molecule Smiles: COc1cc(C(=S)N2CCOCC2)ccc1O
Qualitative Label: N

Molecule Smiles: O=C1OC2(c3ccc(O)cc3Oc3cc(O)ccc32)c2ccccc21
Qualitative Label: Y

Molecule Smiles: COC(c1ccccc1)(c1ccccc1)[C@H](Oc1nc(C)cc(C)n1)C(=O)O
Qualitative Label: N

Please find the next compound below.
Which outcome was assigned to CC(=O)O[C@]1(C(C)=O)CC[C@H]2[C@@H]3C[C@H](C)C4=CC(=O)CC[C@]4(C)[C@H]3CC[C@@]21C in this test?
N

* * *

# Assay Info: qHTS assay to identify small molecule antagonists of the estrogen related receptor (ERR) signaling pathway from Tox21 library - cell viability counter screen (AID 1224834); further: nearly all actives have a fitted effect of over 30% in size
# Test Context: ERR reporter cells viability, CellTiter-Fluor, 17.5 h; series mostly up to 92.4 µM
Results filed as inconclusive are left out. Calls of active or inactive are those of the source. The call rests on the fitted dose curve; in most records, active means well fitted cell-killing curve with a large enough effect in the repeat runs; inconclusive means weak or mixed curves; inactive means flat fitted curve, though single readings scatter.
Outcome field: choose from active, inactive

Compound: CO[Si](OC)(OC)c1ccccc1
Qualitative Label: inactive
--
Compound: CC[C@]1(O)C[C@@H]2CN(CCc3c([nH]c4ccccc34)[C@@](C(=O)OC)(c3cc4c(cc3OC)N(C)[C@H]3[C@@](O)(C(=O)OC)[C@H](OC(C)=O)[C@]5(CC)C=CCN6CC[C@]43[C@@H]65)C2)C1
Qualitative Label: active
--
Compound: O=c1n(CC2CO2)c(=O)n(CC2CO2)c(=O)n1CC1CO1 (stereo unspecified)
Qualitative Label: active

Which outcome was assigned to CC(=O)CC(=O)Nc1ccc2[nH]c(=O)[nH]c2c1 in this test?
inactive

Which outcome was assigned to NCCO in this test?
inactive

Which outcome was assigned to NNCCc1ccccc1 in this test?
inactive
